Target: Serine/threonine-protein kinase PLK1 (Homo sapiens, UniProt P53350)
Sequence (P53350 whole entry): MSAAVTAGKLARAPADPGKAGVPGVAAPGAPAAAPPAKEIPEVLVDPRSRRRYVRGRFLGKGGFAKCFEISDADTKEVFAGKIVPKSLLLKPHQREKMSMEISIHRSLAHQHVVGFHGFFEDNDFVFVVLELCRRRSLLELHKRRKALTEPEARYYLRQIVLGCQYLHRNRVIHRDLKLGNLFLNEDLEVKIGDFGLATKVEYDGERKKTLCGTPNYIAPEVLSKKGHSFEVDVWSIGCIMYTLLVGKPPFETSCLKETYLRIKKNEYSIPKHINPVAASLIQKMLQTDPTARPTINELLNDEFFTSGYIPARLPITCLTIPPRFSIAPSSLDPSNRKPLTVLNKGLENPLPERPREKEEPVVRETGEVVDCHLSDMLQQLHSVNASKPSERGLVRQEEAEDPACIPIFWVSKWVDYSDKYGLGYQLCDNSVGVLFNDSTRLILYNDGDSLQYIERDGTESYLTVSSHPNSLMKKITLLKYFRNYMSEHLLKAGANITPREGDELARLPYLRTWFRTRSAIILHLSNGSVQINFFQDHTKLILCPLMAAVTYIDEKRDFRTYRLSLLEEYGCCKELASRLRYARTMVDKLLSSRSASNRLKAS
property name: IC50 (nM)
Report the figure in nM without appending any unit label.

State, for Serine/threonine-protein kinase PLK1 (Homo sapiens, UniProt P53350), measured IC50 of the compound listed here: `Cc1cc(NC(=O)Nc2ncc(CCNc3cc(Nc4nnc[nH]4)ncn3)s2)c(C(F)(F)F)o1`
720
